This collection of values is drawn from the supplement of paper PMC9170038.

Test system: MS2 coat protein
Method: apparent KD of MS2 coat protein; designed switch direction (-1 OFF switch, 1 ON switch): -1; higher = weaker reporter binding
Condition Parameters: input ligand: FMN 200 uM
Attribute Measured: apparent KD of MS2 coat protein
Express the reported value numerically, then name its unit.

Take a look at these entries with their results.
Sequence String	Measured On	Result Value
CCCGGAUCAACUCCCGGGAACAACAUGAGGAUCACCCAUGUCUAGGAUAUCCACCAGUCAAUAAAGGAGAAGGAGACGGUGGUU [Raesessoqu] (Eterna round: R96, puzzle: Exclusion NG 3)	MS2 coat protein	32.5 nM
GCCGGUGAUCUAACCCGUAACAUGAGGAUCACCCAUGUAAGCUCGGGUUCUACAGAACCCGAUAUUAGCUCGUCAGU [Eternabot (Original) Solution 3] (Eterna round: R97, puzzle: Sensor, turn-off variant 1)	MS2 coat protein	599 nM
UGUUGUUACGCAGGAUAUGGCCAACAGGCCCUAGGAUAUCCGAAAGGAGAAGGAGCGCCAACAGGCGAGAAGGGCGGGUUAACA [pwkr exNG2 2xF7 2xFMN.14] (Eterna round: R96, puzzle: Exclusion NG 2)	MS2 coat protein	201 nM

As a next step, examine the sequence that follows.
Which apparent KD of MS2 coat protein is reported for this sequence? GGUGGCUACGUGAGACAUGAGGAUCACCCAUGUUACCGAACGAAGGAUAUAGAAGCACAUAGCUACUAGAAGGUUGAAAAGAAA [Laeratveti] (Eterna round: R96, puzzle: Exclusion NG 3) 22.6 nM

----------
Tested on: MS2 coat protein
Method: apparent KD of MS2 coat protein; higher = weaker reporter binding
Condition Parameters: Eterna round: R107; input ligand: arginine 13.2 mM
Kindly supply the reported apparent KD of MS2 coat protein values for the records listed here.
Give bare numbers, in µM.

Take a look at these entries with their results.
Sequence String	Measured On	Readout Units	apparent KD of MS2 coat protein
GUGUGGAGCUCGGCCGCCACUCAAACAUGAGGAUCACCCAUGUAAAACAUGAGGAUCACCCAUGUGAGGACCGGGAGAAACACGA [Exclusion Tryptophan B GF8]	MS2 coat protein	µM	0.179
UGACAUUGCUCAGAUACCAGACAUGAGCAUCAGCCAUGUGCCAACAAGUACAAAAUAAAUGUCCCUUGGCAGCUGAGCAAUGUCU [TheoBX 23 #MS2Left #AlternativeMS2 #Theo22]	MS2 coat protein	µM	0.0141
CCCAGUCAUAGCAAAGCAAAUAUACUCGAAGGAGCGUCAUAGUAGGCAGGUAGGUCGCGAGACAUGAGGAUCACCCAUGUAGAGA [ooomullin]	MS2 coat protein	µM	0.0356
GGAUAGGACACGGCCGCCACUACCUAGGAUACUAGCAACAUUUGGGUACAAGAGGAUCACCCUUGUAGGACCGGGUGUCCUAUCG	MS2 coat protein	µM	0.0231
GGAUCCAUCCGAAGGAGCGUCGGAAAUGGGUAAACAUGAGGAUCACCCAUGUAAAGGGAACGGCAGGUAGGUCGCGGAUGGAUCC [#25 Same State - Arginine B]	MS2 coat protein	µM	0.132

As a next step, examine the sequence that follows.
Which apparent KD of MS2 coat protein is reported for this sequence? ACAACAUGAGGCGAUACCAGAGGCAACAUGAGGAUCACCCAUGUUCACCCAUGUGAUCACCUCCCUUGGCAGCGCACAUGAGGAU [Same State - Theophylline B #1] 0.0137

----------
Kindly supply the reported apparent KD of MS2 coat protein values for the records listed here.
Tested on: MS2 coat protein
Method: apparent KD of MS2 coat protein; higher = weaker reporter binding
Condition Parameters: Eterna round: R107; input ligand: theophylline 2 mM
Express the reported value numerically, then name its unit.

Take a look at these entries with their results.
In [3]: df
Out[3]:
                            sequence_string  result_value
0  GGAUGAAACUGAAGGAGCGAGAACACAAGAAUGGGUCAAACAUGAGGAUCACCCAUGUAAUCUCAGGUAGGUCGCAGUAUCCCUU [Exclusion Arginine B GF 10]       53.3 nM
1  UGUAUGGACUGAAGGAGCGGGAAAUAAACCUGAGGAUCACCCAGGUAAUAGGCGAAAGCCACCCAGGUAGGUCGCAGUCCAUACU         12 nM

As a next step, examine the sequence that follows.
What value of apparent KD of MS2 coat protein on MS2 coat protein does GUUAAUAGAAAACUAUUAACAGUGGGUGAACGAGGACCGGUACGGCCGCCACUCGGACAUGAGGAUCACCCAUGUCCAUGUGAAA [AstrosExyTryA#5] have? 15.6 nM

----------
System: MS2 coat protein
Method: apparent KD of MS2 coat protein; higher = weaker reporter binding
Condition Parameters: Eterna round: R107; input ligand: theophylline 2 mM
Quick rule for you: apparent KD of MS2 coat protein at 60 nM or higher means condition met, lower means condition not met.

Consider the worked cases shown below.
Sequence String	Assigned Class
UGAGUUCGCUGAUGGGCUACGUCAGGUGAUACCAGCCACUCCCGCGGCCCUUGGCAGCACAUGAGGAUCACCCAUGUAGAGCUUG [Lazaceonus]	condition met
GGUCUCUGGAGCGAUACCAGCUUAAUUGUACUGGCCAGGUACAUGAGGAUCACCCAUGUAAGCCCUUGGCAGCGCUCCAGAGACC [#1 Exclusion - Theophylline B Attempt #12 (HarryS)]	condition not met
UUCUUUAAGUCGGCCGCCACUGAAACAUGAGGAUCACCCAUGUAAAUUUGGGAGUAGUUAUAUUACAGGACCGGGACUAUAGUAA [JR_ExcTryptoB_Sub020]	condition not met
ACAUUUAACUGAAGGAGCGUGAUAUUUACAUGAGGAUCACCCAUGUCUUUCAUGAUAUAUUCACAGGUAGGUCGCAGACUAAUGA [JR_ExcArginiB_Sub006]	condition met
GGACUAACCAGAAGGAGCGACACGCAGAAACUGCAAUUUCCUCUACACGAGGAUCACCCGUGUCAGGUAGGUCGCUGGUUAGUCG	condition met

Please examine the following record next.
Is it the case that AGUCUGGACUCGGCCGCCACUCGUGAUGCUUUGGCACAUGAGGAUCACCCAUGUGGUCGGCCUUAGAGGACCGGGAGUACCAGUC [Ariaredle] has apparent KD of MS2 coat protein reaching or exceeding 60 nM? condition met

----------
Test system: MS2 coat protein
Method: apparent KD of MS2 coat protein; designed switch direction (-1 OFF switch, 1 ON switch): 1; higher = weaker reporter binding
Condition Parameters: input ligand: microRNA oligo, concentration not stated
Attribute Measured: apparent KD of MS2 coat protein (nM)
Answers are plain numbers, in nM.

Take a look at these entries with their results.
Sequence String	apparent KD of MS2 coat protein / nM
GGCCUGAGUGAAGGAUAUGCUACCGUUUCGGUAGCAGAAGGUCAUCACAUGAGGAUGACCCAUGUUUACGCGAACACGCGCGCC (Eterna round: R96, puzzle: Same State NG 1)	27.2
AGCCGAGACACAGGAUAUAGAUGUCUACAUGAGGAUCACCCAUGUAGCAACACGUGGUAGUGAUUCUAGAAGGGUGCUCGGCGC [Omei SS(NG)2 Cv10] (Eterna round: R96, puzzle: Same State NG 2)	20.5
AGUAGUGUAACAUGAGGAUCACCCAUGUAAGAAGAUGUAACCUAGGAUAUGGAUGUUAUGUUUGACCAGAAGGAGGAUUGUUUA [JR_SSNG3_Sub040] (Eterna round: R96, puzzle: Same State NG 3)	32.1

Hi team, please reply with apparent KD of MS2 coat protein for each item in this list.
1. UUGAAGAAUUAAGGAUAUUGAGUACAUAUGUUUAACAUGAGGAUCACCCAUGUGGGUUGCGGUAUCGAGAAGGUAAAUUACAAG [JL SSNG2 1.44] (Eterna round: R96, puzzle: Same State NG 2)
2. GGAAUAUUUACAGGAUAUGAUUUGUAAAGUCGAUCAGAAGGGUGGAUGUCUUACACGGUUUGUUACAUGAGGAUCACCCAUGUC [SameState NG1 #13] (Eterna round: R96, puzzle: Same State NG 1)

[91.8, 233]

----------
Test system: MS2 coat protein
Method: apparent KD of MS2 coat protein; designed switch direction (-1 OFF switch, 1 ON switch): 1; higher = weaker reporter binding
Condition Parameters: input ligand: none
Kindly supply the reported apparent KD of MS2 coat protein values for the records listed here.
Answers are plain numbers, in nM.

Sequence String	apparent KD of MS2 coat protein (nM)
AAAAAACAUGAGGAUCACCCAUGUAAAAAUAUGGGAGGAUAUUCAAACACGAAAGUGAAAGAAGAAGGCCUAAAAA [SS! MT 18] (Eterna round: R96, puzzle: Same State 1)	81.3

Hi team, please reply with apparent KD of MS2 coat protein for each item in this list.
1. AAAGGAUGAUGUUACAUGAGGAUCACCCAUGUUGUGAUAACUAAGGAUAUGUGUUUAACUAGUUAAUAGAAGGUAGGAUCAUAA [AK SSNG3-V2-3] (Eterna round: R96, puzzle: Same State NG 3)
2. AGAUCAUGACGAGGAUAUGGUACAUGAGGAUCACCCAUGUAUGUACCACGACGGAAACGUCGAAUCCAGAAGGCGUCAUGAUCA [Mat - Same State NG 2 - JL mod - D24] (Eterna round: R96, puzzle: Same State NG 2)
3. GCCGCGUUUAACGCCUACAUGAGGAUCACCCAUGUAUGUAGGCAGGAUAUCGUUUGCUUUGCAAACGAGAAGGGCUGUAGUGGC [salish99_SSNG3_R04_006] (Eterna round: R96, puzzle: Same State NG 3)
4. GCGGAGAGGUAAGGAUAUCCAUGGCAUAGACAUGAGGAUCACCCAUGUAGGAGACGAAUUAGGAGGGAGAAGGUACCGGGACGC [AK SSNG2-V2-19.1] (Eterna round: R96, puzzle: Same State NG 2)

1: 118; 2: 130; 3: 80.9; 4: 179
